# Assay: inhibitors of TNFa-induced NFkB p65 translocation, primary screen, imaging, HUVEC, MLSMR starter and 10KST1 sets (AID 438);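 further: compound added about 3h40 before a 20 min TNFalpha stimulation; signal is the nuclear over cytoplasmic p65 intensity ratio per well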
# Assay Context: HUVEC TNFa-induced p65 nuclear translocation; at 2 µM, stronger effect = higher value, 0% TNFa-plus-vehicle, 100% no-TNFa wells
Active and inactive are the calls of the source.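 How the source made its calls: active means inhibition above 20% together with a positive visual image hit; inconclusive means visual image hit but inhibition not above 20%; inactive means no visual image hit.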
For each record, write down the corresponding inhibition.

Below: 10 compounds and their reported inhibition.
| Compound | inhibition |
| --- | --- |
| COC(=O)c1cc2ccsc2n1CC(=O)N(C)c1ccccc1 | -15.1% (inactive) |
| CCOc1cc(NC(=O)c2ccco2)c(OCC)cc1NC(=O)COc1ccccc1C | 0% (inactive) |
| O=C1c2ccccc2C(O)(Cc2ccccc2)N1Cc1ccco1 (stereo not drawn) | -2.9% (inactive) |
| CCOC(=O)CSc1nnc(-c2ccc(S(=O)(=O)N3CCOCC3)cc2)n1-c1ccccc1 | -21.3% (inactive) |
| C=CCNc1oc(-c2cccc3ccccc23)nc1C#N | -0.4% (inactive) |
| COc1ccccc1CNC(=O)C(C)NS(=O)(=O)c1ccccc1 (stereo not drawn) | -11.3% (inactive) |
| CCOC(=O)CSc1nnc(-c2cccnc2)n1Cc1ccccc1 | 16.6% (inactive) |
| COc1ccc(S(=O)(=O)N(CCN2CCOCC2)Cc2cc(OC)ccc2OC)cc1 | 8.5% (inactive) |
| CC1(C)OC(=O)N(c2cccnc2)C1(C)O (stereo not drawn) | 8.1% (inactive) |
| COCC(=O)NC(c1ccccc1)c1ccccc1 | 9.4% (inactive) |

Lab note: each compound below needs its inhibition filled in.
1. CC(Sc1nnnn1-c1ccccc1)C(=O)Nc1ccc(Cl)cn1 (stereo not drawn)
2. Cc1cccc(C)c1OCc1nnc2c3cnn(C)c3ncn12
3. CCCOC(=O)/C(C(N)=NCc1ccccc1)=C(\O)OCCC

["-12.8% (inactive)", "8.1% (inactive)", "4.4% (inactive)"]

###

# System Under Test: Voltage-gated potassium channel subunit beta-2 (Rattus norvegicus)
# Assay: enhancers of rat Kvbeta2 NADPH turnover – biochemical, NADPH fluorescence, primary screen (AID 623);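 further: fluorescence intensity change per second fitted from 20 to 320 s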
# Assay Context: Recombinant KvBeta, NADPH fluorescence decrease slope, 10 min; at 10 µM; stronger effect = lower value
Readout Kind: NADPH fluorescence slope
Answers are plain numbers.

| Compound | NADPH fluorescence slope |
| --- | --- |
| Cc1cccc(OCC(=O)Nc2cc(C)ccc2O)c1 | -2.2e-05 |
| COc1ccc(S(=O)(=O)NCCCN2CCOCC2)c2ccccc12 | -3.4e-05 |
| Cc1nc2ccc(F)cc2cc1C(=O)NCC1CCCO1 (stereo unspecified) | -4.9e-05 |

Lab note: each compound below needs its NADPH fluorescence slope filled in.
1. c1ccc(Cn2nnnc2CN2CCCC2)cc1
2. CC1Cc2ccccc2N1C(=O)c1cccnc1 (stereo unspecified)

-2.2e-05
-8.5e-05

Lab note: each compound below needs its NADPH fluorescence slope filled in.
1. Cc1ccc2nc(-c3ccc(S(=O)(=O)N4CCOCC4)cc3)cn2c1
2. COc1ccc2cc(C(c3nnnn3C(C)(C)C)N3CCc4ccccc4C3)c(=O)[nH]c2c1 (stereo unspecified)
3. O=C(CSc1nnc(SCc2ccc(Cl)cc2)s1)N1CCN(C(=O)c2ccco2)CC1

1e-05
-5.8e-05
-0.000144

Lab note: each compound below needs its NADPH fluorescence slope filled in.
1. COc1ccc(NC(=O)CC2Oc3ccccc3NC2=O)cc1 (stereo unspecified)
2. CC1CCCCN1CCNC(=O)c1ccc2c(=O)n(CCc3ccccc3)c(=O)[nH]c2c1 (stereo unspecified)
3. COc1ccc(CC(=O)Nc2cc(Cl)ccc2O)cc1

1: -3.2e-05; 2: -3.6e-05; 3: -1.5e-05
